Attribute: IC50
# target-or-test-system: human LPA1 (Homo sapiens, UniProt Q92633)
# Sequence (Q92633 whole entry): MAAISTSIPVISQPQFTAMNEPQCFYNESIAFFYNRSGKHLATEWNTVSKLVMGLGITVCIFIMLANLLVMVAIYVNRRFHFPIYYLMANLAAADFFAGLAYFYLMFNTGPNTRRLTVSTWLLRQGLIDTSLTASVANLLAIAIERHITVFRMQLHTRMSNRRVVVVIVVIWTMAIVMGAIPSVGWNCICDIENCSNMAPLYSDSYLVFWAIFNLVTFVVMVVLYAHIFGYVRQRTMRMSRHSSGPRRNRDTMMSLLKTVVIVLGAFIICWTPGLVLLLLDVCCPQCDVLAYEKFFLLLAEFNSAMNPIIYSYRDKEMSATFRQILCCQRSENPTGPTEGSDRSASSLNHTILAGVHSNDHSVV
# assay-details: LPA1 functional antagonist assay (LPA-induced calcium flux)
# condition: CHO cells overexpressing human LPA1; inhibition of calcium flux induced by 10 nM LPA; read-out: hLPA1 IC50
Write the number in µM without appending the unit.

• Cc1nc(-c2nnn(C)c2COC(=O)N(C)C2CCC2)ccc1OC1CCCCC(C(=O)O)C1 (stereo not shown) [Example 13] = 0.051
• Cc1nc(-c2nnn(C)c2COc2cc(C(C)(C)C)ncn2)ccc1OC1CCCCC(C(=O)O)C1 (stereo not shown) [Example 17] = 0.325
• Cc1nc(-c2nnn(C)c2COC(=O)N(C)CC(C)C)ccc1OC1CCCCC(C(=O)O)C1 (stereo not shown) [Example 9] = 0.016

Field IC50 (entry Cc1nc(-c2nnn(C)c2COc2cc(C(C)C)ncn2)ccc1OC1CCCCC(C(=O)O)C1 (stereo not shown) [Example 19] ) reads 0.048

---

# reported pIC50; entries follow
# target-or-test-system: human LPA1 (Homo sapiens, UniProt Q92633)
# assay-details: LPA1 functional antagonist assay (LPA-induced calcium flux)
# condition: CHO cells overexpressing human LPA1; inhibition of calcium flux induced by 10 nM LPA; read-out: hLPA1 IC50
As a rule, pIC50 stands for the negative log10 of the concentration, concentration in M.

Examples from the recorded data:
* Cc1nc(-c2nnn(C)c2COc2cc(C(C)(C)C)ncn2)ccc1OC1CCCCC(C(=O)O)C1 (centres unmarked) [Example 16] | 6.81
* Cc1nc(-c2nnn(C)c2NC(=O)O[C@H](C)c2ccccc2)ccc1OC1CCCCC(C(=O)O)C1 (mixture of isomers) | 7.28

pIC50 reported for this compound Cc1nc(-c2nnn(C)c2COC(=O)N(C)CC2CCC2)ccc1O[C@@H]1CCCC[C@@H](C(=O)O)C1 (single isomer, unassigned) [Example 2] : 8.02

Record COc1cc(OCc2c(-c3ccc(OC4CCCCC(C(=O)O)C4)c(C)n3)nnn2C)ncn1 (centres unmarked) [Example 21] , field pIC50: 7.59

Entry CCCN(C)C(=O)OCc1c(-c2ccc(OC3CCCCC(C(=O)O)C3)c(C)n2)nnn1C (centres unmarked) , pIC50 reported as 6.93

Entry CCc1cc(OCc2c(-c3ccc(OC4CCCCC(C(=O)O)C4)c(C)n3)nnn2C)ncn1 (racemic) ; pIC50 = 7.49

What the record says about Cc1nc(-c2nnn(C)c2COC(=O)N(C)CCC(C)C)ccc1OC1CCCCC(C(=O)O)C1 (centres unmarked) [Example 12] : pIC50 is 7.60

pIC50 reading for Cc1nc(-c2nnn(C)c2COC(=O)N(C)CC(C)C)ccc1OC1CCCCC(C(=O)O)C1 (centres unmarked) [Example 10] : 7.06

Summary for this compound, COc1cc(OCc2c(-c3ccc(OC4CCCCC(C(=O)O)C4)c(C)n3)nnn2C)ncn1 (centres unmarked) [Example 20] : pIC50 is 7.17

pIC50 for Cc1nc(-c2nnn(C)c2COC(=O)N(C)C2CCC2)ccc1OC1CCCCC(C(=O)O)C1 (centres unmarked) [Example 14] is 7.70

The reported value for Cc1nc(-c2nnn(C)c2COC(=O)N(C)CC2CC2)ccc1OC1CCCCC(C(=O)O)C1 (centres unmarked) in terms of pIC50 is 7.96

Entry Cc1nc(-c2nnn(C)c2COC(=O)N(C)CC2CCC2)ccc1O[C@@H]1CCCC[C@@H](C(=O)O)C1 (single isomer, unassigned) [Example 3] , pIC50 reported as 6.97

What the record says about Cc1nc(-c2nnn(C)c2COC(=O)N(C)CC2CCC2)ccc1O[C@@H]1CCCC[C@H](C(=O)O)C1 (single isomer, unassigned) [Example 5] : pIC50 is 6.53

Record summary for Cc1nc(-c2nnn(C)c2NC(=O)OCC2CC2)ccc1OC1CCCCC(C(=O)O)C1 (centres unmarked) : reported pIC50 = 6.90

get_value(item= Cc1nc(-c2nnn(C)c2COC(=O)N(C)C2CCCC2)ccc1OC1CCCCC(C(=O)O)C1 (centres unmarked) , readout=pIC50) returns 7.96

Recorded result, Cc1nc(-c2nnn(C)c2NC(=O)OCC(C)C)ccc1OC1CCCCC(C(=O)O)C1 (centres unmarked) , pIC50: 7.04

Item: Cc1nc(-c2nnn(C)c2COC(=O)N(C)CCC(C)C)ccc1OC1CCCCC(C(=O)O)C1 (centres unmarked) [Example 11] | pIC50: 7.44

---

# target-or-test-system: human LPA1 (Homo sapiens)
# assay-details: LPA1 functional antagonist assay (LPA-induced calcium flux)
# condition: CHO cells overexpressing human LPA1; inhibition of calcium flux induced by 10 nM LPA; read-out: hLPA1 IC50
# reported IC50; entries follow
Please append the unit to your numeric answer.

Below, 2 compounds whose answers are already recorded.
- Cc1nc(-c2nnn(C)c2COc2cc(C(C)C)ncn2)ccc1OC1CCCCC(C(=O)O)C1 (stereo not drawn) [Example 18]: 145 nM
- Cc1nc(-c2nnn(C)c2COC(=O)N(C)CC2CCC2)ccc1O[C@@H]1CCCC[C@H](C(=O)O)C1 (single isomer, unassigned) [Example 4]: 19 nM

Attention now shifts to the item below.
Case Cc1nc(-c2nnn(C)c2COC(=O)N(C)Cc2ccccc2)ccc1OC1CCCCC(C(=O)O)C1 (racemic) , human LPA1 (Homo sapiens), IC50 recorded as 16 nM
